Molecular target: T1, BCMA-Fc recombinant protein (human, UniProt Q02223 1-54)
T1 construct: Soluble staining reagent, 5 µg/ml; not shown: Fc part
T1 sequence (looked up): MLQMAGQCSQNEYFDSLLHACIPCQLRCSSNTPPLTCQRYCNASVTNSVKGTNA
Experiment: flow cytometry: lentivirally transduced CAR-T cells stained with 5 µg/ml BCMA-Fc, detected with anti-human IgG Fc (FIG. 17B)
testReadout: binding result

anti-BCMA scFv BCMA30 (scFv, also called BCMA30 scFv; BCMA30 CAR) scFv: DIQMTQSPSFLSASVGDRVTITCRASQGISSYLAWYQQKPGKAPKLLIYAASTLQSGVPSRFSGSGSGTEFTLTISSLQPEDFATYYCQQLNSYPPWTFGQGTKVEIKGGGGSGGGGSGGGGSQVQLVQSGAEVKKPGESLKISCKGSGYRFTSYWIGWVRQMPGKGLEWMGIIYPGDSDTRYSPPFQGQVTISADKSIDTAYLQWSSLKASDTAMYYCARLDASGSQRGGMDVWGQGTTVTVSS : binds
anti-BCMA scFv BCMA22 (scFv, also called BCMA22 scFv; BCMA22 CAR) scFv: QSALTQPASVSGSPGQSITISCTGTSSDVGGYNYVSWYQQHPGKAPKLMIYEVTNRPSGVSNRFSGSKSGNTASLTISGLQAEDEAHYYCISYTSSSTLDYVFGTGTKVTVLGGGGSGGGGSGGGGSEVQLVESGPGLVKPSGTLSLTCAVSGGSISSSNWWSWVRQPPGKGLEWIGEIYHSGSTNYNPSLKSRVTISVDKSKNQFSLKLSSVTAADTAVYYCARVGSGYSYGYGDRVLDYWGQGTLVTVSS : binds
anti-BCMA scFv BCMA33 (scFv, also called BCMA33 scFv; BCMA33 CAR) scFv: QSALTQPPSASGSPGQSVTISCTGTSSDVGGYNYVSWYQQHPGKAPKLMIYEVSKRPSGVPDRFSGSKSGNTASLTVSGLQAEDEADYFCSSYAGSNNFVVFGGGTKLTVLGGGGSGGGGSGGGGSEVQLVESGGGLVQPGRSLRLSCAASGFTFDDYAMHWVRQAPGKGLEWVSGISWNSGSIGYADSVKGRFTISRDNAKNSLYLQMNSLRAEDTALYYCAKVGASAALGAFDIWGQGTMVTVSS : binds
